# Lookup of reported IC50 keyed by entry
molecular target: Nociceptin receptor (Homo sapiens); test: Binding affinity determined by the ability to compete with [125I]-Tyr14- nociceptin from binding to human opiate receptor-like 1 expressed in HEK293 cells; type: cell-based
Lab book: enter the figure in µM, no units written.

{"columns": ["compound", "targetSystem", "IC50 [µM]"],
 "data": [
  ["COC(=O)CN1C(=O)C2(CCN(C(C)c3ccccc3)CC2)c2ccccc21 (stereo not drawn)", "Nociceptin receptor (Homo sapiens)", 10]
]}

Q: Quick one: IC50 of COC(=O)CN1C(=O)C2(CCN(Cc3ccc(-c4ccccc4)cc3)CC2)c2ccccc21 ?
Result: 10

Q: Same thing, different compound: COC(=O)CN1C(=O)C2(CCN(Cc3ccccc3-c3ccsc3)CC2)c2ccccc21
Result: 10

Q: Moving on to COC(=O)CN1C(=O)C2(CCN(c3ccc4c5c(cccc35)CC4)CC2)c2ccccc21
Result: 0.35

Q: Same for CCCCCCC(CCCC)CN1CCC2(CC1)C(=O)N(CC(=O)OC)c1ccccc12 (stereo not drawn)
Result: 10

----------
target: Nociceptin receptor (Homo sapiens, UniProt P41146); test: Binding affinity determined by the ability to compete with [125I]-Tyr14- nociceptin from binding to human opiate receptor-like 1 expressed in HEK293 cells; assay type: cell-based
Sequence (P41146 whole entry): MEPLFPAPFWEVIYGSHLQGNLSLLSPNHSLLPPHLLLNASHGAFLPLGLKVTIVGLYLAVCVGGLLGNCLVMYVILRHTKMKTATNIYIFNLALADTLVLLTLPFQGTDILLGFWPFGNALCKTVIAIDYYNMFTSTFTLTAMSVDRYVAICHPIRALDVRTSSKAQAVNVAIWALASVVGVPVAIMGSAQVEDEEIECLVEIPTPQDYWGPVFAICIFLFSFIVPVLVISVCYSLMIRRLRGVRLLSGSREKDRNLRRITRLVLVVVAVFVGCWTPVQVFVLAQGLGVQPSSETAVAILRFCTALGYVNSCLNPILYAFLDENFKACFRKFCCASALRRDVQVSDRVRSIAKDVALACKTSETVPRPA
Here the recorded IC50 is given for each entry.

Sample records with IC50:
{"columns": ["compound", "targetSystem", "outcomeMeasure", "measuredValue"],
 "data": [
  ["COC(=O)CN1C(=O)C2(CCN(C(=O)C3CCC(OC)CC3)CC2)c2ccccc21 (stereo not drawn)", "Nociceptin receptor (Homo sapiens, UniProt P41146)", "IC50", "> 10 µM"],
  ["COc1ccc2c(c1)N(CC1CC1)C(=O)C21CCN(CC2CCCCCCC2)CC1", "Nociceptin receptor (Homo sapiens, UniProt P41146)", "IC50", "> 10 µM"]
]}

Now, please, on to the next compound.
Q: Suppose we examine the compound COC(=O)CN1C(=O)C2(CCN(C(=O)CCC(=O)c3ccccc3)CC2)c2ccccc21 ; what IC50 value has been reported?
Result: > 10 µM
